- Measurement Parameters: Ebola virus entry assay, reporter ratio channel; Channel type: primary
The source made the active and inactive calls. The rule behind the calls is not given here.
Give your call using only these classes: active, inactive

Below are worked cases with known answers.
| Molecule | Assigned Label |
| --- | --- |
| CO[C@@H]1[C@@H](O[C@@H]2O[C@H](C)[C@@H](O[C@H]3C[C@@](C)(O)[C@@H](O)[C@H](C)O3)[C@H](N(C)C)[C@H]2O)[C@@H](CC=O)C[C@@H](C)[C@@H](O[C@@H]2CC[C@H](N(C)C)[C@@H](C)O2)/C=C/C=C/C[C@@H](C)OC(=O)C[C@H]1OC(C)=O | active |
| O=C(O)CN(CCOCCOCCN(CC(=O)O)CC(=O)O)CC(=O)O | inactive |
| Cc1c(C)n(Cc2ccccc2)c2ccc(C(=O)OCCN(C)C)cc12 | active |
| O=C(OCC(O)CO)c1ccccc1Nc1ccnc2c(C(F)(F)F)cccc12 (stereo not given) | inactive |
| COCC(=O)O[C@]1(CCN(C)CCCc2nc3ccccc3[nH]2)CCc2cc(F)ccc2[C@@H]1C(C)C | active |
| Oc1ccc(Cl)cc1Sc1cc(Cl)ccc1O | active |
| CC(NC(CCc1ccccc1)C(=O)O)C(=O)N1C(=O)N(C)CC1C(=O)O (stereo not given) | inactive |
| O=c1oc2c(O)c(O)cc3c(=O)oc4c(O)c(O)cc1c4c23 | active |
| CC(=O)N(CC(=O)N(C)C)c1ccccc1 | inactive |
| C/C=C/c1ccc(OC)cc1 | inactive |

What call does the record list for COC(=O)c1nc(Cl)c(Cl)nc1N ?
active

What call does the record list for CC(=O)[C@@]1(O)CC[C@H]2[C@@H]3C[C@H](C)C4=CC(=O)CC[C@]4(C)[C@H]3CC[C@@]21C ?
inactive

What call does the record list for c1ccc2nc(N3CCNCC3)ccc2c1 ?
active

What call does the record list for COC1=C(OC)C(=O)C(CCCCCCCCCCO)=C(C)C1=O ?
inactive

What call does the record list for COc1ccc(CN2CCNCC2)c(OC)c1OC ?
inactive

* * *

- Test system: AA1029
- Assay Protocol: qHTS profiling for inhibitors of Plasmodium falciparum proliferation (AID 504749); note: nearly all actives have a fitted effect of over 60% in size
- Measurement Parameters: P. falciparum in erythrocytes, SYBR Green DNA, 72 h; series mostly up to 28.7 µM
Records with an inconclusive call do not appear. The source made the active and inactive calls. Calls come from the whole dose curve; as a rule, active = well fitted inhibition curve with a large enough effect; inconclusive = small, poorly fitted or top-dose-only effect; inactive = flat fitted curve, though single readings scatter.
Give your call using only these classes: True (active), False (inactive)

Below are worked cases with known answers.
| Compound | Assigned Label |
| --- | --- |
| COCC(=O)N(c1c(C)cccc1C)C(C)C(=O)OC (centres undefined) | False |
| O=C(CCCN1CCC(n2c(=O)[nH]c3ccccc32)CC1)c1ccc(F)cc1 | True |
| C=CCOC(Cn1ccnc1)c1ccc(Cl)cc1Cl (centres undefined) | True |
| CCNc1nc(Cl)nc(NCC)n1 | False |
| NCc1cccnc1 | False |

What call does the record list for C[C@]12Cc3nonc3C[C@@H]1CC[C@@H]1[C@@H]2CC[C@@]2(C)[C@H]1CC[C@]2(C)O ?
False

What call does the record list for CC(C)(C)OC(=O)c1ncn2c1[C@@H]1CCCN1C(=O)c1c(Br)cccc1-2 ?
False

What call does the record list for Cc1ncc2n1-c1ccc(Cl)cc1C(c1ccccc1F)=NC2 ?
False

What call does the record list for CCC(=O)O[C@H]1CC[C@H]2[C@@H]3CCC4=CC(=O)CC[C@]4(C)[C@H]3CC[C@]12C ?
False

What call does the record list for NC(=O)OCCCc1ccccc1 ?
False

What call does the record list for OC(c1ccccc1)(c1ccccc1)C1CCNCC1 ?
False

What call does the record list for O=c1n(Cl)c(=O)n(Cl)c(=O)n1Cl ?
False

What call does the record list for CNC(=O)NC(O)C(Cl)(Cl)Cl (centres undefined) ?
False

What call does the record list for C[N+]1(CCC(C(N)=O)(c2ccccc2)c2ccccc2)CCCCC1 ?
False

What call does the record list for O=C(O)c1nn(Cc2ccc(Cl)cc2Cl)c2ccccc12 ?
False

What call does the record list for C[C@]12C=CC(=O)C=C1CC[C@@H]1[C@@H]2CC[C@@]2(C)[C@H]1CC[C@]2(C)O ?
False

What call does the record list for COc1ccc(CN2CCNCC2)c(OC)c1OC ?
False

What call does the record list for COc1ccc(C(=O)N2CCCC2=O)cc1 ?
False

What call does the record list for CCOC(=O)NC(O)C(Cl)(Cl)Cl (centres undefined) ?
False
